These measurements were taken from the supplement of paper PMC12076712.

# system: HIPK1 (UniProt Q86Z02)
# Sequence (Q86Z02 whole entry, looked up): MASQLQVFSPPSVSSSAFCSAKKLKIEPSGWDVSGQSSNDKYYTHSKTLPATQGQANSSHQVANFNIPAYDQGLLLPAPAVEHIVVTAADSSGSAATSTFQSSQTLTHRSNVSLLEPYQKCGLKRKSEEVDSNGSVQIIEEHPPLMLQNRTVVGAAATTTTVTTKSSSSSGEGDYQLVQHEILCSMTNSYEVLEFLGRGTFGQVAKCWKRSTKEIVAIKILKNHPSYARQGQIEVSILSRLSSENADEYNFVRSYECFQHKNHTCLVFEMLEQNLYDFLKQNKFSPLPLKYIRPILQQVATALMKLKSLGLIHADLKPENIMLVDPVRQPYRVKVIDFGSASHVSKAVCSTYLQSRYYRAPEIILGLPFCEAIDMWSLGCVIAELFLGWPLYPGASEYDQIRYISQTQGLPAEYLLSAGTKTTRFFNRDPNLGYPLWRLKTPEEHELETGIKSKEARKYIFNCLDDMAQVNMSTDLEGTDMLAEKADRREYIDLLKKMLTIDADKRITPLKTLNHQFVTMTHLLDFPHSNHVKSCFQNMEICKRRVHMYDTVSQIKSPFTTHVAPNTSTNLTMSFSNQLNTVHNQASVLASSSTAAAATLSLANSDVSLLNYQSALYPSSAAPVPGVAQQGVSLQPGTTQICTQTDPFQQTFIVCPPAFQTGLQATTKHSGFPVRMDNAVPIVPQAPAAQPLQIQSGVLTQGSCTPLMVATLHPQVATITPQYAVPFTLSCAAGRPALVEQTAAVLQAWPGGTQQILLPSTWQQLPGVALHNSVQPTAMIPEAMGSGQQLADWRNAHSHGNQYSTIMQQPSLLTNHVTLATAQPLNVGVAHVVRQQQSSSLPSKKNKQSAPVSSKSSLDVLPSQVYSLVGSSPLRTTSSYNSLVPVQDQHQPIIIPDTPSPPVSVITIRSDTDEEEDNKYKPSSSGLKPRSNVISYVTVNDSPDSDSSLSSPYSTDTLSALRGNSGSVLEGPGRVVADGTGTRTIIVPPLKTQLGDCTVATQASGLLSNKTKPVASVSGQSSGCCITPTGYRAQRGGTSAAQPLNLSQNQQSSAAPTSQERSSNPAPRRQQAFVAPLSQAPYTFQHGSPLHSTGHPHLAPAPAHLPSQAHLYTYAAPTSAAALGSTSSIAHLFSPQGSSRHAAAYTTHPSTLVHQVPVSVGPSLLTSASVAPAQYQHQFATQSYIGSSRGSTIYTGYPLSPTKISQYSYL
# experiment summary: pIC50, kinobeads binding competition
# experimental conditions: cell material: Lysate mix
measured metric: pIC50
// return a plain number; no unit text

Report pIC50 under test system HIPK1 (UniProt Q86Z02) for `C#CCNC(=O)c1cc(Nc2cc(C3CC3)[nH]n2)nc(N2CCN(Cc3ccc(S(=O)(=O)F)cc3)CC2)n1` .
6

Report pIC50 under test system HIPK1 (UniProt Q86Z02) for `C#CCNC(=O)c1cc(Nc2cc(C)[nH]n2)nc(N2CCN(Cc3ccc(S(=O)(=O)F)cc3)CC2)n1` .
5.06

Report pIC50 under test system HIPK1 (UniProt Q86Z02) for `CCNC(=O)c1cc(Nc2cc(C)[nH]n2)nc(N2CCN(Cc3ccc(S(=O)(=O)F)cc3)CC2)n1` .
4.78

Report pIC50 under test system HIPK1 (UniProt Q86Z02) for `CCNC(=O)c1cc(Nc2cc(C3CC3)[nH]n2)nc(N2CCN(Cc3ccc(S(=O)(=O)F)cc3)CC2)n1` .
5.78

###

# system: SYK (UniProt P43405)
# experiment summary: pIC50, kinobeads binding competition
# experimental conditions: cell material: Lysate mix
measured metric: pIC50
// return a plain number; no unit text

Let me know recorded pIC50 for `C#CCNC(=O)c1cc(Nc2cc(C)[nH]n2)nc(N2CCN(Cc3ccc(S(=O)(=O)F)cc3)CC2)n1` , thanks.
5.52

Let me know recorded pIC50 for `C#CCNC(=O)c1cc(Nc2cc(C3CC3)[nH]n2)nc(N2CCN(Cc3ccc(S(=O)(=O)F)cc3)CC2)n1` , thanks.
6.28

Let me know recorded pIC50 for `CCNC(=O)c1cc(Nc2cc(C)[nH]n2)nc(N2CCN(Cc3ccc(S(=O)(=O)F)cc3)CC2)n1` , thanks.
5.57

Let me know recorded pIC50 for `CCNC(=O)c1cc(Nc2cc(C3CC3)[nH]n2)nc(N2CCN(Cc3ccc(S(=O)(=O)F)cc3)CC2)n1` , thanks.
6.22

###

Provide the recorded pIC50 for the entries that follow.
# system: UniProt P51812
# Sequence (P51812 whole entry): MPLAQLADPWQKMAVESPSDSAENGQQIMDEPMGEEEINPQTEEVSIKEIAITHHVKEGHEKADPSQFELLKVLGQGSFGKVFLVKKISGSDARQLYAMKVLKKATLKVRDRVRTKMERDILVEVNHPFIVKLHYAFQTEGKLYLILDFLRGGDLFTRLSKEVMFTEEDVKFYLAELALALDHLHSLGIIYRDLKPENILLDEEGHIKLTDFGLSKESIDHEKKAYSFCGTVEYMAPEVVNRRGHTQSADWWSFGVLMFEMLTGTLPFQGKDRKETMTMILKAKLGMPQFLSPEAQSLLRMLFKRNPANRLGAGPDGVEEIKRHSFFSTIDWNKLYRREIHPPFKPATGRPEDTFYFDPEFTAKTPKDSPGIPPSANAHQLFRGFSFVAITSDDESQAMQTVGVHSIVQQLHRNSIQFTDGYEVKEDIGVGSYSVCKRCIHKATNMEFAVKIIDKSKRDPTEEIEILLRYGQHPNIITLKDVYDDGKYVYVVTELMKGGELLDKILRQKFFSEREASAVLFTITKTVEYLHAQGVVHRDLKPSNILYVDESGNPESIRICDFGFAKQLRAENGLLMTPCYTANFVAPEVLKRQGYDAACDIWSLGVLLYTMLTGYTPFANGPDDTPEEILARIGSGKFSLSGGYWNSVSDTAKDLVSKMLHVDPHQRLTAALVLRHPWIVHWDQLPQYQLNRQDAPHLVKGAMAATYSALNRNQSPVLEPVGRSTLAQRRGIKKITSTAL
# experiment summary: pIC50, kinobeads binding competition
# experimental conditions: cell material: Lysate mix
// return a plain number; no unit text

Let me know recorded pIC50 for `CCNC(=O)c1cc(Nc2cc(C)[nH]n2)nc(N2CCN(Cc3ccc(S(=O)(=O)F)cc3)CC2)n1` , thanks.
4.87

Let me know recorded pIC50 for `C#CCNC(=O)c1cc(Nc2cc(C)[nH]n2)nc(N2CCN(Cc3ccc(S(=O)(=O)F)cc3)CC2)n1` , thanks.
5.11

Let me know recorded pIC50 for `CCNC(=O)c1cc(Nc2cc(C3CC3)[nH]n2)nc(N2CCN(Cc3ccc(S(=O)(=O)F)cc3)CC2)n1` , thanks.
5.28

Let me know recorded pIC50 for `C#CCNC(=O)c1cc(Nc2cc(C3CC3)[nH]n2)nc(N2CCN(Cc3ccc(S(=O)(=O)F)cc3)CC2)n1` , thanks.
5.44

###

Provide the recorded pIC50 for the entries that follow.
# system: TAOK1 (UniProt Q7L7X3)
# Sequence (whole entry): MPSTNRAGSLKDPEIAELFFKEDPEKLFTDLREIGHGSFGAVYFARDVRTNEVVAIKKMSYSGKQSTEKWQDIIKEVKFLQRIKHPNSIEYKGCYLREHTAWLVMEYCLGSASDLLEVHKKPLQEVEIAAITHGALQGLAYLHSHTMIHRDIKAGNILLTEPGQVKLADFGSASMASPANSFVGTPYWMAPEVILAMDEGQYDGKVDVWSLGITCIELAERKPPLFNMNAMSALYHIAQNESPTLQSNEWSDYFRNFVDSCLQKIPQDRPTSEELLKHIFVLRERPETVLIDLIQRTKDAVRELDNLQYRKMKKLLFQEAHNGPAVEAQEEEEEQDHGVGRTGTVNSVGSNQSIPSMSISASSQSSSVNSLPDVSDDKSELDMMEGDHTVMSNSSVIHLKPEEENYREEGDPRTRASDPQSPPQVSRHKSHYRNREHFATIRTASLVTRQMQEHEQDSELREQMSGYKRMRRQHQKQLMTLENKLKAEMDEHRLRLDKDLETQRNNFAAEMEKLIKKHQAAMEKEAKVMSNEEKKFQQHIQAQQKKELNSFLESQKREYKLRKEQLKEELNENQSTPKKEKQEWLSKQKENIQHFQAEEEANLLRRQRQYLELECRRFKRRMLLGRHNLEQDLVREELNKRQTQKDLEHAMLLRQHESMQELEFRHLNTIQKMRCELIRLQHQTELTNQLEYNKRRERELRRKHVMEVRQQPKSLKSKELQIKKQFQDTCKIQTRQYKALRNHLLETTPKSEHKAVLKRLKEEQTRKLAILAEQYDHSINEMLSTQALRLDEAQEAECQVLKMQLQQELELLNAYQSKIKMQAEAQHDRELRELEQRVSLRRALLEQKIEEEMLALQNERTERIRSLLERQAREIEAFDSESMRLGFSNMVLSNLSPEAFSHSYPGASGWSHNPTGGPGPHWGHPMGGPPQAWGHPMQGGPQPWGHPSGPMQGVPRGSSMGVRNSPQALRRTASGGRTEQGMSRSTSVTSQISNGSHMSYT
# experiment summary: pIC50, kinobeads binding competition
# experimental conditions: cell material: Lysate mix

Let me know recorded pIC50 for Cc1cc(Nc2cc(C(=O)NCCNC(=O)OC3CC/C=C/CCC3)nc(N3CCN(Cc4ccc(S(=O)(=O)F)cc4)CC3)n2)n[nH]1 (stereo unspecified) , thanks.
5.87

Let me know recorded pIC50 for `CCNC(=O)c1cc(Nc2cc(C)[nH]n2)nc(N2CCN(Cc3ccc(S(=O)(=O)F)cc3)CC2)n1` , thanks.
< 4.52

Let me know recorded pIC50 for O=C(NCCNC(=O)c1cc(Nc2cc(C3CC3)[nH]n2)nc(N2CCN(Cc3ccc(S(=O)(=O)F)cc3)CC2)n1)OC1CC/C=C/CCC1 (stereo unspecified) , thanks.
6.1

Let me know recorded pIC50 for `CCNC(=O)c1cc(Nc2cc(C3CC3)[nH]n2)nc(N2CCN(Cc3ccc(S(=O)(=O)F)cc3)CC2)n1` , thanks.
< 4.52

Let me know recorded pIC50 for `C#CCNC(=O)c1cc(Nc2cc(C3CC3)[nH]n2)nc(N2CCN(Cc3ccc(S(=O)(=O)F)cc3)CC2)n1` , thanks.
< 4.52

Let me know recorded pIC50 for `C#CCNC(=O)c1cc(Nc2cc(C)[nH]n2)nc(N2CCN(Cc3ccc(S(=O)(=O)F)cc3)CC2)n1` , thanks.
< 4.52

###

# system: UniProtKB Q07002
# Sequence (Q07002 whole entry): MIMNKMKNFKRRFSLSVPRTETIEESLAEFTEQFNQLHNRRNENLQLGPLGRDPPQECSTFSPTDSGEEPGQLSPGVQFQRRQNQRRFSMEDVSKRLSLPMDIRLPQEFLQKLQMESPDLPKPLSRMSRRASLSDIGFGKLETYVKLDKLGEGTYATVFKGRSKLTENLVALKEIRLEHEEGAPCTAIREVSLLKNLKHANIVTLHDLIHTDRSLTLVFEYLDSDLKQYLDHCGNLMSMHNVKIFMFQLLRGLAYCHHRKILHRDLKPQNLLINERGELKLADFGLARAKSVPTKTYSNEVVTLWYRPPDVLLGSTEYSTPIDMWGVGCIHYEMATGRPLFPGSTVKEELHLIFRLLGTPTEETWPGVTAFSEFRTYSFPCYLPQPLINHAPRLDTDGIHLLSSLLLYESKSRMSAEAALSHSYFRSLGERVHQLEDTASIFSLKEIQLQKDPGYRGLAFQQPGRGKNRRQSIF
# experiment summary: pIC50, kinobeads binding competition
# experimental conditions: cell material: Lysate mix
Provide the recorded pIC50 for the entries that follow.

Let me know recorded pIC50 for `C#CCNC(=O)c1cc(Nc2cc(C3CC3)[nH]n2)nc(N2CCN(Cc3ccc(S(=O)(=O)F)cc3)CC2)n1` , thanks.
5.2

Let me know recorded pIC50 for `C#CCNC(=O)c1cc(Nc2cc(C)[nH]n2)nc(N2CCN(Cc3ccc(S(=O)(=O)F)cc3)CC2)n1` , thanks.
< 4.52

Let me know recorded pIC50 for O=C(NCCNC(=O)c1cc(Nc2cc(C3CC3)[nH]n2)nc(N2CCN(Cc3ccc(S(=O)(=O)F)cc3)CC2)n1)OC1CC/C=C/CCC1 (stereo unspecified) , thanks.
< 4.52

Let me know recorded pIC50 for Cc1cc(Nc2cc(C(=O)NCCNC(=O)OC3CC/C=C/CCC3)nc(N3CCN(Cc4ccc(S(=O)(=O)F)cc4)CC3)n2)n[nH]1 (stereo unspecified) , thanks.
< 4.52

Let me know recorded pIC50 for `CCNC(=O)c1cc(Nc2cc(C3CC3)[nH]n2)nc(N2CCN(Cc3ccc(S(=O)(=O)F)cc3)CC2)n1` , thanks.
5.36

Let me know recorded pIC50 for `CCNC(=O)c1cc(Nc2cc(C)[nH]n2)nc(N2CCN(Cc3ccc(S(=O)(=O)F)cc3)CC2)n1` , thanks.
< 4.52

###

Provide the recorded pIC50 for the entries that follow.
# system: UniProt:Q9UL54
# Sequence (whole entry): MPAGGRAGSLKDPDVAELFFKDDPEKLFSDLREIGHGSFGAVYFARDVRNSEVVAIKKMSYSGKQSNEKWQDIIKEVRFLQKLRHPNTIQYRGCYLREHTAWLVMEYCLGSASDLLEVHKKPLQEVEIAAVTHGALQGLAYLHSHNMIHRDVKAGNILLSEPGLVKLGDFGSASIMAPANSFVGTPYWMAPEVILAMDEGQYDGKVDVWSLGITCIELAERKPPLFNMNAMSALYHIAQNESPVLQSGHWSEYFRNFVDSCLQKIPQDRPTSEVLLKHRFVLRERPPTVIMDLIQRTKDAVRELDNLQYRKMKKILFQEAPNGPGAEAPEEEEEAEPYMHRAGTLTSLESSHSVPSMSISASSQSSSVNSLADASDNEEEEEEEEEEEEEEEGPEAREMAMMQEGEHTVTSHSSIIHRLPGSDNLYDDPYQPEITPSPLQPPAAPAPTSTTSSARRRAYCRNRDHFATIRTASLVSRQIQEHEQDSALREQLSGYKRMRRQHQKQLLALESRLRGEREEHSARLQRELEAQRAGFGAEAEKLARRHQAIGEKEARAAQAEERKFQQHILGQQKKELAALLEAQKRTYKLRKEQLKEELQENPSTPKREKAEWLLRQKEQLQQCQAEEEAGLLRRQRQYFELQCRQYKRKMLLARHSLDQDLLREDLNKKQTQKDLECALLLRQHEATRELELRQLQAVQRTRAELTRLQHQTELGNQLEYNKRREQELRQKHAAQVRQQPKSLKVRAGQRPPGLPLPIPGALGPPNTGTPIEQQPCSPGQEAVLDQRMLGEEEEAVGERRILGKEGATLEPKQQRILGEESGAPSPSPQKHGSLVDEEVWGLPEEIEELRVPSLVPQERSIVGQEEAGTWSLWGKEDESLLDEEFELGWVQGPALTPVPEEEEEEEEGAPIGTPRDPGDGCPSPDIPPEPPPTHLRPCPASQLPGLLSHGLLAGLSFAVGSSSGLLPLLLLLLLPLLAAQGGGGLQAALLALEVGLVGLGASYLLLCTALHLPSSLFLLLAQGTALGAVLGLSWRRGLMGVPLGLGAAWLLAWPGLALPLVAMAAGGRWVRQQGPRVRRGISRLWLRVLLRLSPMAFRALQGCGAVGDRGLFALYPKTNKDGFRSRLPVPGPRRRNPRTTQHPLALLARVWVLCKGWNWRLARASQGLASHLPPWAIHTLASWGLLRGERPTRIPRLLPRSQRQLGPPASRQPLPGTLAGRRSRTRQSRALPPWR
# experiment summary: pIC50, kinobeads binding competition
# experimental conditions: cell material: Lysate mix

Let me know recorded pIC50 for `C#CCNC(=O)c1cc(Nc2cc(C3CC3)[nH]n2)nc(N2CCN(Cc3ccc(S(=O)(=O)F)cc3)CC2)n1` , thanks.
< 4.52

Let me know recorded pIC50 for `CCNC(=O)c1cc(Nc2cc(C)[nH]n2)nc(N2CCN(Cc3ccc(S(=O)(=O)F)cc3)CC2)n1` , thanks.
< 4.52

Let me know recorded pIC50 for `C#CCNC(=O)c1cc(Nc2cc(C)[nH]n2)nc(N2CCN(Cc3ccc(S(=O)(=O)F)cc3)CC2)n1` , thanks.
< 4.52

Let me know recorded pIC50 for O=C(NCCNC(=O)c1cc(Nc2cc(C3CC3)[nH]n2)nc(N2CCN(Cc3ccc(S(=O)(=O)F)cc3)CC2)n1)OC1CC/C=C/CCC1 (stereo unspecified) , thanks.
5.33

Let me know recorded pIC50 for `CCNC(=O)c1cc(Nc2cc(C3CC3)[nH]n2)nc(N2CCN(Cc3ccc(S(=O)(=O)F)cc3)CC2)n1` , thanks.
< 4.52

Let me know recorded pIC50 for Cc1cc(Nc2cc(C(=O)NCCNC(=O)OC3CC/C=C/CCC3)nc(N3CCN(Cc4ccc(S(=O)(=O)F)cc4)CC3)n2)n[nH]1 (stereo unspecified) , thanks.
5.15
